System: UACC-257
Assay: Growth inhibition of human UACC257 cells after 48 hrs by SRB assay
Type: functional
Conditions: UACC-257, 48 h
propertyLabel: log10 GI50 (log10 of the value in µM)
Field: value | Transform: log10 | Quantity: GI50 | Unit: µM

Return log10 GI50 for the following compound: COc1ccc(/C=C\c2cc(OC)c(OC)c(OC)c2)cc1OCC(=O)Nc1nc2ccccc2s1
1.04

Quote log10 GI50 reported for COc1ccc(/C=C\c2cc(OC)c(OC)c(OC)c2)cc1OCC(=O)Nc1nc2ccc(C(F)(F)F)cc2s1 please.
1.60

For the compound COc1ccc(/C=C\c2cc(OC)c(OC)c(OC)c2)cc1OCC(=O)Nc1nc2ccc(F)cc2s1 , report log10 GI50.
0.94

Return reported log10 GI50. Input compound: COc1ccc(/C=C\c2cc(OC)c(OC)c(OC)c2)cc1O
-2.52

Output measured log10 GI50 for this item: COc1ccc(/C=C\c2cc(OC)c(OC)c(OC)c2)cc1OCC(=O)Nc1ccc2nc(C)sc2c1
0.24

Fill in reported log10 GI50 for this entry: COc1ccc2nc(NC(=O)COc3cc(/C=C\c4cc(OC)c(OC)c(OC)c4)ccc3OC)sc2c1
1.80
